target: T1, human PSMA (Prostate Specific Membrane Antigen, Glutamate Carboxypeptidase II) on cells (human, UniProt Q04609 1-750); assay: flow cytometry on LNCaP cells
T1 construct: whole, on cells; the cell line is named under assay; also called cell surface expressed PSMA; FOLH1
T1 sequence (Q04609 whole entry): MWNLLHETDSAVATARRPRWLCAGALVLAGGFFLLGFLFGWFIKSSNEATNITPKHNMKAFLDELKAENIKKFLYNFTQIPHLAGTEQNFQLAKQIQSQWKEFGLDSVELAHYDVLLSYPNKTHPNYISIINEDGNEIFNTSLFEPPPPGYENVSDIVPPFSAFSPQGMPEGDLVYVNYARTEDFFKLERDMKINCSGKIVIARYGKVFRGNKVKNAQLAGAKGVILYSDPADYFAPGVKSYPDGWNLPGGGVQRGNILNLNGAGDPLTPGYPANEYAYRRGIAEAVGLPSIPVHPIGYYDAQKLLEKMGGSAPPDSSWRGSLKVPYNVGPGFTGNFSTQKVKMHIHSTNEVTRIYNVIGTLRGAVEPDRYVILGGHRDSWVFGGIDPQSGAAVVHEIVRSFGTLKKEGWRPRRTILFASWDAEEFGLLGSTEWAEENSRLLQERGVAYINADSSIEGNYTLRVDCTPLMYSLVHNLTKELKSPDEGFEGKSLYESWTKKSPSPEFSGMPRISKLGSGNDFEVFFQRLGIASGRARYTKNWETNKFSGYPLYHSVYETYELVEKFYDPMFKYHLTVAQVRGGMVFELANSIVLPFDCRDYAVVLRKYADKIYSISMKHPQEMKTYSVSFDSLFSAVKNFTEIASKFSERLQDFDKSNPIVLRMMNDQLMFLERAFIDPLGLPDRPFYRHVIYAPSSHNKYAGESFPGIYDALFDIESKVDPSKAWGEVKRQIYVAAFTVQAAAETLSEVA
I'd appreciate it if you could supply fold over the background MFI signal values for the items below.
Quick note: number first, unit second.

[[record]]
binder = "anti-PSMA heavy chain antibody clone ID 345447 (antibody, V domains shown, heavy chain-only antibody (UniAb), no light chain) VH: QVQLVESGGGVVQPGRSLRLSCAASGFSFSSYGMHWVRQAPGKGLEGVAVISYDGSNRYYADSVKGRFTISRDNSKNTLYLQMNSLRAEDTAVYYCAREPRIGYYYESSGYYSLDYRGQGTLVTVSS"
observable = "fold over the background MFI signal"
observed = "14 fold over background"


Then there is this binder:
Query: Give recorded fold over the background MFI signal. anti-PSMA heavy chain antibody clone ID 326109 (antibody, V domains shown, heavy chain-only antibody (UniAb), no light chain) VH: QLQLQESGPGLVKPSETLSLTCTVSGGSISSNSYYWGWIRQSPGKGLEWLGSIYDSGSTHYNPSLKSRVIISGDTSKNQFSLKLSSVTAADTAVYYCARHKAATADFDYRGQGTLVTVSS
Response: 25 fold over background
